Assay: Inhibition of gamma-secretase expressed in CHO cells expressing wild type human recombinant APP assessed as reduction in amyloid beta40 production
pEC50: −log10 of the molar value.
readout-kind: pEC50

chemical-smiles: CC[C@H](C)[C@@H](CO)NS(=O)(=O)c1ccc(C#N)cc1
readout-kind: pEC50
observed-value: < 4.00

**Q:** Indicate its recorded pEC50; the compound in question is CC[C@H](C)[C@@H](CO)NCc1ccc(Cl)cc1
**A:** < 4.00

**Q:** Indicate its recorded pEC50; the compound in question is CC[C@H](C)[C@@H](CO)NC(=O)Cc1ccc(Cl)cc1
**A:** < 4.00

**Q:** Indicate its recorded pEC50; the compound in question is CC[C@H](C)[C@H](NS(=O)(=O)c1ccc(Cl)cc1)C(C)(C)O
**A:** < 4.00

**Q:** Indicate its recorded pEC50; the compound in question is CC[C@H](C)[C@@H](CO)NS(=O)(=O)Nc1ccc(Cl)cc1
**A:** < 4.52
